Tested on: MCF7
PROTOCOL SUMMARY: Growth inhibitory activity against MCF-7 human breast tumor cell line at a concentration of 10e-6 M in vitro.
Type: functional
Set-up: scale not given: the % may be the effect or the level left
Classification field: enter fulfilled for Activity values not below 60%, not fulfilled for values below it.

{"COMPOUND": "CC/C(=C(/c1ccc(OCCN(C)C)cc1)c1ccc(C2CO2)cc1)c1ccccc1 (stereo unspecified)", "ASSAY TARGET": "MCF7", "CLASSIFICATION": "not fulfilled"}
{"COMPOUND": "CC/C(=C(\\c1ccc(OCCN(C)C)cc1)c1ccc(S(C)(=O)=O)cc1)c1ccccc1", "ASSAY TARGET": "MCF7", "CLASSIFICATION": "fulfilled"}
{"COMPOUND": "CC/C(=C(\\c1ccc(I)cc1)c1ccc(OCCN(CC)CC)cc1)c1ccccc1", "ASSAY TARGET": "MCF7", "CLASSIFICATION": "not fulfilled"}
{"COMPOUND": "CC/C(=C(/c1ccc(OCCN(C)C)cc1)c1ccc([S+](C)[O-])cc1)c1ccccc1 (stereo unspecified)", "ASSAY TARGET": "MCF7", "CLASSIFICATION": "fulfilled"}
{"COMPOUND": "CC/C(=C(/c1ccc(OCCN(C)C)cc1)c1cccc(I)c1)c1ccccc1", "ASSAY TARGET": "MCF7", "CLASSIFICATION": "not fulfilled"}
{"COMPOUND": "CC/C(=C(\\c1ccc(Cl)cc1)c1ccc(OCCN(C)C)cc1)c1ccccc1", "ASSAY TARGET": "MCF7", "CLASSIFICATION": "not fulfilled"}
{"COMPOUND": "CC/C(=C(/c1ccc(OCCN(C)C)cc1)c1ccc(S(C)(=O)=O)cc1)c1ccccc1", "ASSAY TARGET": "MCF7", "CLASSIFICATION": "not fulfilled"}
{"COMPOUND": "CC/C(=C(/c1ccc(I)cc1)c1ccc(OCCN(C)C)cc1)c1ccccc1", "ASSAY TARGET": "MCF7", "CLASSIFICATION": "fulfilled"}
{"COMPOUND": "CC/C(=C(\\c1ccc(I)cc1)c1ccc(OCCN2CCCC2)cc1)c1ccccc1", "ASSAY TARGET": "MCF7", "CLASSIFICATION": "not fulfilled"}
{"COMPOUND": "CC/C(=C(/c1ccccc1)c1ccc(OCCN(C)C)cc1)c1ccccc1", "ASSAY TARGET": "MCF7", "CLASSIFICATION": "fulfilled"}
{"COMPOUND": "CC/C(=C(\\c1ccc(CO)cc1)c1ccc(OCCN(C)C)cc1)c1ccccc1", "ASSAY TARGET": "MCF7", "CLASSIFICATION": "fulfilled"}
{"COMPOUND": "CC/C(=C(\\c1ccc(Br)cc1)c1ccc(OCCN(C)C)cc1)c1ccccc1", "ASSAY TARGET": "MCF7", "CLASSIFICATION": "fulfilled"}
{"COMPOUND": "CC/C(=C(\\c1ccc(S)cc1)c1ccc(OCCN(C)C)cc1)c1ccccc1", "ASSAY TARGET": "MCF7", "CLASSIFICATION": "fulfilled"}
{"COMPOUND": "CC/C(=C(\\c1ccc(OCCN(C)C)cc1)c1ccc(SC)cc1)c1ccccc1", "ASSAY TARGET": "MCF7", "CLASSIFICATION": "fulfilled"}
{"COMPOUND": "CC/C(=C(/c1ccc(OCCN(C)C)cc1)c1ccc(SC)cc1)c1ccccc1", "ASSAY TARGET": "MCF7", "CLASSIFICATION": "not fulfilled"}
{"COMPOUND": "CC/C(=C(\\c1ccc(I)cc1)c1ccc(OCCN(C)C)cc1)c1ccccc1", "ASSAY TARGET": "MCF7", "CLASSIFICATION": "not fulfilled"}
{"COMPOUND": "CCC(=C(c1ccc(O)cc1)c1ccc(OCCN(C)C)cc1)c1ccccc1", "ASSAY TARGET": "MCF7", "CLASSIFICATION": "not fulfilled"}
{"COMPOUND": "CC/C(=C(\\c1ccc(C=O)cc1)c1ccc(OCCN(C)C)cc1)c1ccccc1", "ASSAY TARGET": "MCF7", "CLASSIFICATION": "not fulfilled"}
{"COMPOUND": "CC/C(=C(/c1ccc(Br)cc1)c1ccc(OCCN(C)C)cc1)c1ccccc1", "ASSAY TARGET": "MCF7", "CLASSIFICATION": "fulfilled"}
{"COMPOUND": "CC/C(=C(\\c1ccccc1)c1ccc(OCCN(C)C)cc1)c1ccccc1", "ASSAY TARGET": "MCF7", "CLASSIFICATION": "fulfilled"}
{"COMPOUND": "CC/C(=C(\\c1ccc(OCCN(C)C)cc1)c1ccc([S+](C)[O-])cc1)c1ccccc1 (stereo unspecified)", "ASSAY TARGET": "MCF7", "CLASSIFICATION": "fulfilled"}
